- study system: KRas G12R (Homo sapiens, UniProt P01116, G12R)
- Sequence (P01116 1-169 isoform P01116-2 G12R): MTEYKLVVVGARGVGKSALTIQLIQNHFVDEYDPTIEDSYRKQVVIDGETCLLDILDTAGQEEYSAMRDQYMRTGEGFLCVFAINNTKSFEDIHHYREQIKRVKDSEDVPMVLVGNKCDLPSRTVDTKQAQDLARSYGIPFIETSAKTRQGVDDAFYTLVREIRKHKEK
- assay method text: biochemical
- condition set: Binding to KRas (IC50 nM) G12R, TR-FRET displacement, KRas G12R
parameter: IC50 (nM)

// solved cases for IC50 follow
[[record]]
compound = "CCc1c(F)ccc2cc(O)cc(N3CCc4c(nc(OC[C@@]56CCCN5C[C@H](F)C6)nc4N4CCCn5nnc(Cl)c5C4)C3)c12 [Example 391]"
parameter = "IC50"
unit_string = "nM"
reported = 3

[[record]]
compound = "CCc1c(F)ccc2cc(O)cc(N3CCc4c(nc(OC[C@@]56CCCN5C[C@H](F)C6)nc4N4CCCn5nc(N(C)S(N)(=O)=O)cc5C4)C3)c12 [Example 291]"
parameter = "IC50"
unit_string = "nM"
reported = 20

[[record]]
compound = "Oc1cc(Cl)c(C2CC2)c(N2CCc3c(nc(OCC45CCCN4CCC5)nc3N3CCC[C@]4(C3)C[C@@H](O)C4)C2)c1 [Example 441]"
parameter = "IC50"
unit_string = "nM"
reported = 14

[[record]]
compound = "Cc1cc2[nH]ncc2c(N2CCc3c(nc(OCC45CCCN4CCC5)nc3N3CC4C(=O)NC(=O)C4C3)C2)c1C (stereo not drawn) [Example 458]"
parameter = "IC50"
unit_string = "nM"
reported = 145

[[record]]
compound = "CCc1c(F)ccc2cc(O)cc(N3CCc4c(nc(OCC5(CN(C)C)CC5)nc4N4CC(C)CC(CO)C4)C3)c12 (stereo not drawn) [Example 596]"
parameter = "IC50"
unit_string = "nM"
reported = 9

[[record]]
compound = "Cc1cc2[nH]ncc2c(N2CCc3c(nc(OCC4(CN(C)C)CC4)nc3N3CCC[C@]4(C3)NC(=O)NC4=O)C2)c1C [Example 462]"
parameter = "IC50"
unit_string = "nM"
reported = 7


A = CCc1c(F)ccc2cc(O)cc(N3CCc4c(nc(OC[C@@]56CCCN5C[C@H](F)C6)nc4N4CCCn5nc(CNS(=O)(=O)N(C)C)cc5C4)C3)c12 [Example 336]
B = C[C@@H]1C[C@@H]1c1c(Cl)cc(O)cc1N1CCc2c(nc(OC[C@@]34CCCN3C[C@H](F)C4)nc2N2CCC[C@]3(CNS(=O)(=O)N3)C2)C1 (stereo in doubt) [Example 654]
C = Cc1cc2[nH]ncc2c(N2CCc3c(nc(OCC45CCCN4CCC5)nc3N3CCCC4(CNC(=O)N4)C3)C2)c1C (stereo not drawn) [Example 461]
Task: Rank the 3 compounds: largest IC50 first, smallest last. The labels, placed in the requested order, form the answer.
Result: C, A, B
(C: 22 nM, A: 7 nM, B: 3 nM)

a = CN(C)C(=O)c1cc2n(n1)CCCN(c1nc(OCC34CCCN3CCC4)nc3c1CCN(c1cc(O)cc(Cl)c1C1CC1)C3)C2 [Example 437]
b = CCc1c(F)ccc2cc(O)cc(N3CCc4c(nc(OC[C@@]56CCCN5C[C@H](F)C6)nc4N4CCCn5nc(NC)c(C)c5C4)C3)c12 [Example 376]
Task: Just curious, which one has the larger IC50 reading, a or b ? Returns: label corresponding to the selected item.
Result: a
(a: 5 nM, b: 3 nM)

---

- study system: KRas G12V (Homo sapiens, UniProt P01116, G12V)
- Sequence (P01116 1-169 isoform P01116-2 G12V): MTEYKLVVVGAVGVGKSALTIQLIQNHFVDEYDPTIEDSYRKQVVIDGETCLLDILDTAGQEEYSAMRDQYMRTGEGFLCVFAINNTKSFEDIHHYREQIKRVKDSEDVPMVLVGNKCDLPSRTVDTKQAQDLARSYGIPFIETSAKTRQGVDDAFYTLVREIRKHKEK
- assay method text: biochemical
- condition set: Binding to KRas (IC50 nM) G12V, TR-FRET displacement, KRas G12V
parameter: IC50 (nM)

[[record]]
compound = "CCc1c(F)ccc2cc(O)cc(N3CCc4c(nc(OC[C@@]56CCCN5C[C@H](F)C6)nc4N4CCCc5n[nH]cc5C4)C3)c12"
parameter = "IC50"
reported = 6

[[record]]
compound = "CCCCCCCCCCNC(=O)c1cc2n(n1)CCCN(c1nc(OC[C@@]34CCCN3C[C@H](F)C4)nc3c1CCN(c1cc(O)cc4ccc(F)c(CC)c14)C3)C2"
parameter = "IC50"
reported = 123

[[record]]
compound = "CCc1c(F)ccc2cc(O)cc(N3CCc4c(nc(OC[C@@]56CCCN5C[C@H](F)C6)nc4N4CCCc5nn(C6CC6)cc5C4)C3)c12"
parameter = "IC50"
reported = 62


I = CCc1c(F)ccc2cc(O)cc(N3CCc4c(nc(OC[C@@]56CCCN5C[C@H](F)C6)nc4N4CCCCn5nc(N)cc5C4)C3)c12
II = CCc1cccc2cccc(N3CCc4c(nc(OCC5(CN(C)C)CC5)nc4N4CCOCC(CO)C4)C3)c12 (stereo not shown)
III = CCc1cccc2cccc(N3CCc4c(nc(OCC5(CN(C)C)CC5)nc4NCc4nnnn4C4CCC4)C3)c12
IV = CCc1c(F)ccc2cc(O)cc(N3CCc4c(nc(OCC5(CN(C)C)CC5)nc4N4CCCC(c5cn(C)nn5)C4)C3)c12 (stereo not shown)
Task: Rank the 4 compounds: largest IC50 first, smallest last. The labels, placed in the requested order, form the answer.
Result: III, II, IV, I
